Property: AC50; scope: individual compounds
# assayed system: Estrogen receptor (Homo sapiens, UniProt P03372); further: assay procedure not described here
# Sequence (P03372 whole entry): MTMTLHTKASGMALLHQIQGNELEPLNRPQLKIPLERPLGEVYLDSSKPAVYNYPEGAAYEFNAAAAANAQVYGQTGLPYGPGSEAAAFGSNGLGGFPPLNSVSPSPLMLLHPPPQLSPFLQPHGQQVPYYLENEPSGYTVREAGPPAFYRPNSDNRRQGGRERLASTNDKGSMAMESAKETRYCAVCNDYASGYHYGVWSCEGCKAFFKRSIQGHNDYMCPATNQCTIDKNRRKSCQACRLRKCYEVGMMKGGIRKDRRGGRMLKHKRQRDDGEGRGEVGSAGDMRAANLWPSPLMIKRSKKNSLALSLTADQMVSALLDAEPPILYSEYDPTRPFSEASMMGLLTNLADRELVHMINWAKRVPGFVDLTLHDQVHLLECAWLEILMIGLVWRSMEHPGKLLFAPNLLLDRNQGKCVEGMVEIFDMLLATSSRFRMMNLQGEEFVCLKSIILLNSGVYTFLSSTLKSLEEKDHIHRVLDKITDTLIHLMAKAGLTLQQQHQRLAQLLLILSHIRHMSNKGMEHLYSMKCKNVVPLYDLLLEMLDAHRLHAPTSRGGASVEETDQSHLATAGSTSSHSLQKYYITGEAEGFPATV

compound: CN(C)c1ccc(O)c2c1C[C@H]1C[C@H]3[C@H](N(C)C)C(O)=C(C(N)=O)C(=O)[C@@]3(O)C(O)=C1C2=O
assayed system: Estrogen receptor (Homo sapiens, UniProt P03372); further: assay procedure not described here
AC50: > 30 µM
--
compound: CCC[C@H](N[C@@H](C)C(=O)N1[C@H](C(=O)O)C[C@@H]2CCCC[C@@H]21)C(=O)OCC
assayed system: Estrogen receptor (Homo sapiens, UniProt P03372); further: assay procedure not described here
AC50: > 30 µM
--
compound: C[C@]12C=CC(=O)C=C1CC[C@H]1[C@@H]3C[C@@H](O)[C@](O)(C(=O)CO)[C@@]3(C)C[C@H](O)[C@@]12F
assayed system: Estrogen receptor (Homo sapiens, UniProt P03372); further: assay procedure not described here
AC50: > 30 µM
--
compound: O=C(CCC/C=C\C[C@@H]1[C@@H](CC[C@@H](O)CCc2ccccc2)[C@H](O)C[C@@H]1O)OCCCCO[N+](=O)[O-]
assayed system: Estrogen receptor (Homo sapiens, UniProt P03372); further: assay procedure not described here
AC50: > 30 µM
--
compound: CC(COc1ccccc1)NC(C)C(O)c1ccc(O)cc1 (stereo not drawn)
assayed system: Estrogen receptor (Homo sapiens, UniProt P03372); further: assay procedure not described here
AC50: > 30 µM
--
compound: O=C(NNCS(=O)(=O)O)c1ccncc1 [METHANIAZIDE]
assayed system: Estrogen receptor (Homo sapiens, UniProt P03372); further: assay procedure not described here
AC50: > 30 µM
--
compound: CC(C)NC(=N)NC(=N)Nc1ccc(Cl)c(Cl)c1
assayed system: Estrogen receptor (Homo sapiens, UniProt P03372); further: assay procedure not described here
AC50: > 30 µM
--
compound: c1ccc2c(SC3=NCCN3)c[nH]c2c1
assayed system: Estrogen receptor (Homo sapiens, UniProt P03372); further: assay procedure not described here
AC50: > 30 µM

----------
# assayed system: cGMP-inhibited 3',5'-cyclic phosphodiesterase 3A (Homo sapiens, UniProt Q14432); further: assay procedure not described here
# Sequence (Q14432 whole entry): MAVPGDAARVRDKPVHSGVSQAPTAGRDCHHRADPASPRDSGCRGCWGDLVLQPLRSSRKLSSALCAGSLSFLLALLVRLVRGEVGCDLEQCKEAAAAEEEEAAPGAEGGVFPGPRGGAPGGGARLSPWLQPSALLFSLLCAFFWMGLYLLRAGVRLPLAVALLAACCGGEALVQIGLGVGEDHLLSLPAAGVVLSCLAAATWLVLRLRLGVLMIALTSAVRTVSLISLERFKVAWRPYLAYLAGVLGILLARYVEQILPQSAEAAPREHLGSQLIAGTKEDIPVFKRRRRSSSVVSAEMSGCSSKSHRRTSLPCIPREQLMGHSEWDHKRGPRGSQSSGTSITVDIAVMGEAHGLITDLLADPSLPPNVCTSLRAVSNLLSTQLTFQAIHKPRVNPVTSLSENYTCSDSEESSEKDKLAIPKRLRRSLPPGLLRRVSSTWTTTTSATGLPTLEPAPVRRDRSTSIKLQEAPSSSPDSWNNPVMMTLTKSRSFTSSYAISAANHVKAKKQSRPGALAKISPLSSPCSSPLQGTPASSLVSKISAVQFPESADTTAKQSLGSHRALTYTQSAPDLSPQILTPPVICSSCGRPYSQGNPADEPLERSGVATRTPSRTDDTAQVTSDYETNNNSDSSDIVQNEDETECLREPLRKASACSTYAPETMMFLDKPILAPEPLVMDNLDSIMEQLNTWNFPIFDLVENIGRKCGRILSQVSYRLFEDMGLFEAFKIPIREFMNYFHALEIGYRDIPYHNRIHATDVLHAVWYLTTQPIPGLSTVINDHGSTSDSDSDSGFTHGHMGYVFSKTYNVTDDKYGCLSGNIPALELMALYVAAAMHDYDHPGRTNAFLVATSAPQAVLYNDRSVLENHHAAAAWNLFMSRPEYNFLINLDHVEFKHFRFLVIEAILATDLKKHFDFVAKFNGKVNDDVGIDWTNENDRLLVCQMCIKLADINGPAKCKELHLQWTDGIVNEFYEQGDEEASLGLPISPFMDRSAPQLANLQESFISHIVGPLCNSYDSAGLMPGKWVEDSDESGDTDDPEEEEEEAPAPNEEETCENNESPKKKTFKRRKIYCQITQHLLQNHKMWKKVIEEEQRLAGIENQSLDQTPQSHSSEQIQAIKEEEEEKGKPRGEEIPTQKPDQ
# Type: functional
compounds and their reported AC50
measured property: AC50

compound: CCCc1cc(=O)[nH]c(=S)[nH]1
measured property: AC50
result: > 30 µM

compound: COc1ccc2cc(CCC(C)=O)ccc2c1
measured property: AC50
result: > 30 µM

compound: CN(C)CCCN1c2ccccc2CCc2ccccc21
measured property: AC50
result: > 10 µM

compound: C=C1c2cccc(O)c2C(=O)C2=C(O)[C@]3(O)C(=O)C(C(N)=O)=C(O)[C@@H](N(C)C)[C@@H]3[C@@H](O)[C@H]12
measured property: AC50
result: > 30 µM

compound: Cc1cc(C2CCCCC2)n(O)c(=O)c1
measured property: AC50
result: > 30 µM

compound: CC(C)(Oc1ccc(CCNC(=O)c2ccc(Cl)cc2)cc1)C(=O)O [BEZAFIBRATE]
measured property: AC50
result: > 30 µM

----------
# assayed system: 5-hydroxytryptamine receptor 2B (Homo sapiens, UniProt P41595); further: assay procedure not described here
# Sequence (P41595 whole entry): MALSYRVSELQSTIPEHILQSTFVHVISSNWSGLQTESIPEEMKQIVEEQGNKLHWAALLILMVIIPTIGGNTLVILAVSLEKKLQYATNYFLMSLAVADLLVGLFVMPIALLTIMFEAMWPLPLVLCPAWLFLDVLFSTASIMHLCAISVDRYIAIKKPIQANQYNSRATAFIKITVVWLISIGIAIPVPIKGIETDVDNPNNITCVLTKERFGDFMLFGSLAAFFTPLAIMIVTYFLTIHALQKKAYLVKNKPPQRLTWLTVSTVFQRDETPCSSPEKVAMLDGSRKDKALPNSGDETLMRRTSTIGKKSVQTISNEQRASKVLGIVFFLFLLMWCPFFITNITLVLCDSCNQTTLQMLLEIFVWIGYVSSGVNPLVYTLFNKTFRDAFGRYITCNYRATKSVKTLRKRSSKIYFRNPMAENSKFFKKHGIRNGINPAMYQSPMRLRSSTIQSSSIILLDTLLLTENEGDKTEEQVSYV
# Format: functional, cell-based

molecule: CCC1(CCC(C)C)C(=O)NC(=O)NC1=O
assayed system: 5-hydroxytryptamine receptor 2B (Homo sapiens, UniProt P41595); further: assay procedure not described here
AC50: > 10 µM
--
molecule: CN(C)CCCN1c2ccccc2CCc2ccccc21
assayed system: 5-hydroxytryptamine receptor 2B (Homo sapiens, UniProt P41595); further: assay procedure not described here
AC50: > 10 µM
--
molecule: CCN1CC(CCN2CCOCC2)C(c2ccccc2)(c2ccccc2)C1=O (configuration not stated)
assayed system: 5-hydroxytryptamine receptor 2B (Homo sapiens, UniProt P41595); further: assay procedure not described here
AC50: > 30 µM
--
molecule: NC(=O)NC(=O)Cc1ccccc1 [PHENACEMIDE]
assayed system: 5-hydroxytryptamine receptor 2B (Homo sapiens, UniProt P41595); further: assay procedure not described here
AC50: > 10 µM
--
molecule: CCOC(=O)C1=C(C)NC(C)=C(C(=O)OCC)C1c1ccccc1/C=C/C(=O)OC(C)(C)C
assayed system: 5-hydroxytryptamine receptor 2B (Homo sapiens, UniProt P41595); further: assay procedure not described here
AC50: > 30 µM
--
molecule: C[N+]12CCC(CC1)C(OC(=O)C(O)(c1ccccc1)c1ccccc1)C2 (configuration not stated)
assayed system: 5-hydroxytryptamine receptor 2B (Homo sapiens, UniProt P41595); further: assay procedure not described here
AC50: > 30 µM
--
molecule: OC[C@H]1O[C@@H](Oc2cc(O)cc(/C=C/c3ccc(O)cc3)c2)[C@H](O)[C@@H](O)[C@@H]1O
assayed system: 5-hydroxytryptamine receptor 2B (Homo sapiens, UniProt P41595); further: assay procedure not described here
AC50: > 30 µM
--
molecule: O=c1c(O)c(-c2ccc(O)c(O)c2)oc2cc(O)cc(O)c12
assayed system: 5-hydroxytryptamine receptor 2B (Homo sapiens, UniProt P41595); further: assay procedure not described here
AC50: > 30 µM
--
molecule: CCCN(CCC)S(=O)(=O)c1ccc(C(=O)O)cc1
assayed system: 5-hydroxytryptamine receptor 2B (Homo sapiens, UniProt P41595); further: assay procedure not described here
AC50: > 10 µM
--
molecule: CC(C(=O)O)c1ccc2c(c1)CC(=O)c1ccccc1S2 (configuration not stated)
assayed system: 5-hydroxytryptamine receptor 2B (Homo sapiens, UniProt P41595); further: assay procedure not described here
AC50: > 30 µM
--
molecule: C[N+](C)(C)CCOP(=O)(O)OP(=O)([O-])OC[C@H]1O[C@@H](n2ccc(N)nc2=O)[C@H](O)[C@@H]1O
assayed system: 5-hydroxytryptamine receptor 2B (Homo sapiens, UniProt P41595); further: assay procedure not described here
AC50: > 30 µM
--
molecule: Cc1cccc(C)c1NC(=O)CC12CCCN1CCC2 [PILSICAINIDE]
assayed system: 5-hydroxytryptamine receptor 2B (Homo sapiens, UniProt P41595); further: assay procedure not described here
AC50: > 30 µM
--
molecule: CCOC(=O)[C@@H](N)Cc1ccc(-c2cc(O[C@H](c3ccc(Cl)cc3-n3ccc(C)n3)C(F)(F)F)nc(N)n2)cc1
assayed system: 5-hydroxytryptamine receptor 2B (Homo sapiens, UniProt P41595); further: assay procedure not described here
AC50: > 30 µM
--
molecule: COc1cc(C(=O)NC2CCCNC2)cc(OC)c1OC (configuration not stated) [TROXIPIDE]
assayed system: 5-hydroxytryptamine receptor 2B (Homo sapiens, UniProt P41595); further: assay procedure not described here
AC50: > 30 µM
--
molecule: O=C(O)Cc1ccccc1Nc1c(Cl)cccc1Cl
assayed system: 5-hydroxytryptamine receptor 2B (Homo sapiens, UniProt P41595); further: assay procedure not described here
AC50: > 10 µM
--
molecule: CC(C)Cc1ccc([C@H](C)C(=O)O)cc1
assayed system: 5-hydroxytryptamine receptor 2B (Homo sapiens, UniProt P41595); further: assay procedure not described here
AC50: > 30 µM
--
molecule: Oc1cc(O)c(Cl)cn1
assayed system: 5-hydroxytryptamine receptor 2B (Homo sapiens, UniProt P41595); further: assay procedure not described here
AC50: > 30 µM
--
molecule: CC1(C)S[C@@H]2[C@H](NC(=O)C(C(=O)O)c3ccccc3)C(=O)N2[C@H]1C(=O)O (some centres not stated)
assayed system: 5-hydroxytryptamine receptor 2B (Homo sapiens, UniProt P41595); further: assay procedure not described here
AC50: > 30 µM
--
molecule: Cc1ccc(C)c(OCCCC(C)(C)C(=O)O)c1
assayed system: 5-hydroxytryptamine receptor 2B (Homo sapiens, UniProt P41595); further: assay procedure not described here
AC50: > 10 µM
--
molecule: CNCCc1ccc(OC(=O)C(C)C)c(OC(=O)C(C)C)c1
assayed system: 5-hydroxytryptamine receptor 2B (Homo sapiens, UniProt P41595); further: assay procedure not described here
AC50: > 30 µM
--
molecule: CC[C@H](C)C(=O)O[C@H]1C[C@@H](C)C=C2C=C[C@H](C)[C@H](CC[C@@H]3C[C@@H](O)CC(=O)O3)[C@H]21
assayed system: 5-hydroxytryptamine receptor 2B (Homo sapiens, UniProt P41595); further: assay procedure not described here
AC50: > 10 µM
--
molecule: COc1cc(C)c(/C=C/C(C)=C/C=C/C(C)=C/C(=O)O)c(C)c1C
assayed system: 5-hydroxytryptamine receptor 2B (Homo sapiens, UniProt P41595); further: assay procedure not described here
AC50: > 10 µM
--
molecule: O=C1Cc2cc(CCN3CCN(c4nsc5ccccc45)CC3)c(Cl)cc2N1
assayed system: 5-hydroxytryptamine receptor 2B (Homo sapiens, UniProt P41595); further: assay procedure not described here
AC50: > 30 µM
--
molecule: c1ccc(C2(N3CCCCC3)CCCCC2)cc1
assayed system: 5-hydroxytryptamine receptor 2B (Homo sapiens, UniProt P41595); further: assay procedure not described here
AC50: > 30 µM
--
molecule: S=P(N1CC1)(N1CC1)N1CC1
assayed system: 5-hydroxytryptamine receptor 2B (Homo sapiens, UniProt P41595); further: assay procedure not described here
AC50: > 30 µM
--
molecule: CCOC(=O)c1ncn2c1CN(C)C(=O)c1cc(F)ccc1-2
assayed system: 5-hydroxytryptamine receptor 2B (Homo sapiens, UniProt P41595); further: assay procedure not described here
AC50: > 30 µM
--
molecule: O=C(O)Cc1ccccc1Oc1ccc(Cl)cc1Cl
assayed system: 5-hydroxytryptamine receptor 2B (Homo sapiens, UniProt P41595); further: assay procedure not described here
AC50: > 10 µM
--
molecule: CC(C)N(CCCCOCC(=O)O)c1cnc(-c2ccccc2)c(-c2ccccc2)n1
assayed system: 5-hydroxytryptamine receptor 2B (Homo sapiens, UniProt P41595); further: assay procedure not described here
AC50: > 30 µM
--
molecule: C[C@]12C/C(=C/O)C(=O)C[C@@H]1CC[C@@H]1[C@@H]2CC[C@@]2(C)[C@H]1CC[C@]2(C)O
assayed system: 5-hydroxytryptamine receptor 2B (Homo sapiens, UniProt P41595); further: assay procedure not described here
AC50: > 30 µM
--
molecule: CC/C=C\C/C=C\C/C=C\C/C=C\C/C=C\CCCC(=O)OCC
assayed system: 5-hydroxytryptamine receptor 2B (Homo sapiens, UniProt P41595); further: assay procedure not described here
AC50: > 30 µM
--
molecule: CO/N=C(\C(=O)N[C@@H]1C(=O)N2C(C(=O)O)=CCS[C@H]12)c1csc(N)n1
assayed system: 5-hydroxytryptamine receptor 2B (Homo sapiens, UniProt P41595); further: assay procedure not described here
AC50: > 30 µM
--
molecule: Cc1onc(-c2c(F)cccc2Cl)c1C(=O)N[C@@H]1C(=O)N2[C@@H]1SC(C)(C)[C@@H]2C(=O)O
assayed system: 5-hydroxytryptamine receptor 2B (Homo sapiens, UniProt P41595); further: assay procedure not described here
AC50: > 30 µM
--
molecule: O=C1c2cccc3c2[C@H](CCC3)CN1[C@@H]1CN2CCC1CC2
assayed system: 5-hydroxytryptamine receptor 2B (Homo sapiens, UniProt P41595); further: assay procedure not described here
AC50: > 30 µM
--
molecule: Clc1ccc(Cn2c(CN3CCCC3)nc3ccccc32)cc1
assayed system: 5-hydroxytryptamine receptor 2B (Homo sapiens, UniProt P41595); further: assay procedure not described here
AC50: 0.67 µM
--
molecule: COc1cc(C(C)=O)ccc1OCCCN1CCC(c2noc3cc(F)ccc23)CC1
assayed system: 5-hydroxytryptamine receptor 2B (Homo sapiens, UniProt P41595); further: assay procedure not described here
AC50: > 30 µM
--
molecule: CC(C)NC(=N)NC(=N)Nc1ccc(Cl)c(Cl)c1
assayed system: 5-hydroxytryptamine receptor 2B (Homo sapiens, UniProt P41595); further: assay procedure not described here
AC50: > 30 µM
--
molecule: C[N+]1(C)CCC(=C(c2ccccc2)c2ccccc2)CC1
assayed system: 5-hydroxytryptamine receptor 2B (Homo sapiens, UniProt P41595); further: assay procedure not described here
AC50: > 10 µM
